Source listed as patent US6355799B1.

Some compounds, each annotated with its measured phytotoxicity rating CORN (crop damage).
tested on: field corn (Zea mays L., var. Dekalb 535, CORN); test: Post-emerge test, crop safety; format: in vivo; details: post-emerge, 250 g ai/ha, 14 days after application, rating scale 0-100
Please give only the number in your answer, with no unit.

>>> recorded_value("COc1c(Cl)cc(F)c(-n2c(=O)cc(C(F)(F)F)n(C)c2=O)c1NC(=O)OCc1ccc(OC(F)(F)F)cc1")
20
>>> recorded_value("COc1c(Cl)cc(F)c(-n2c(=O)cc(C(F)(F)F)n(C)c2=O)c1NC(=O)OCc1cc(C)ccc1C")
85
>>> recorded_value("COC(=O)N(C(=O)OC)c1c(OC)c(Cl)cc(F)c1-n1c(=O)cc(C(F)(F)F)n(C)c1=O")
10
>>> recorded_value("Nn1c(C(F)(F)F)cc(=O)n(-c2c(F)cc(Cl)c(O)c2NC(=O)c2ccc3ccccc3c2)c1=O")
15
>>> recorded_value("CC(C)Oc1c(Cl)cc(F)c(-n2c(=O)cc(C(F)(F)F)n(C)c2=O)c1NC(=O)c1ccc2ccccc2c1")
10

Pending compound:
I would be grateful if you could share the reported phytotoxicity rating CORN (crop damage) for `COc1c(Cl)cc(F)c(-n2c(=O)cc(C(F)(F)F)n(C)c2=O)c1NC(=O)OCc1ccc(Cl)c(Cl)c1` . 30

====

test system: green foxtail (Setaria viridis, SETVI); assay: Pre-emerge test, greenhouse herbicide activity screening; assay type: in vivo; details: 63 g ai/ha; phytotoxicity rating 0-100, 14 days after application
# if measured Pre-emerge Herbicidal Activity SETVI < 40: 1  # else: 0

A selection of reference data follows.
>>> assigned_label("Cn1c(C(F)(F)F)cc(=O)n(-c2c(F)cc(Cl)c(OCC#N)c2NC(=O)c2ccc3ccccc3c2)c1=O")
0
>>> assigned_label("COc1c(Cl)cc(F)c(-n2c(=O)cc(C(F)(F)F)n(C)c2=O)c1NC(=O)OCc1c(Cl)cccc1Cl")
0

Strictly below 40: is that where Pre-emerge Herbicidal Activity SETVI of `Cc1ccc(-n2c(=O)cc(C(F)(F)F)n(C)c2=O)c(NC(=O)c2ccc3ccccc3c2)c1` sits? 1

Hi there! Is Pre-emerge Herbicidal Activity SETVI for `COc1c(Cl)cc(F)c(-n2c(=O)cc(C(F)(F)F)n(C)c2=O)c1NC(=O)OCc1ccc(C(F)(F)F)cc1` below 40, do you know? 1

Lab note: confirm whether the reported Pre-emerge Herbicidal Activity SETVI for this compound is below 40, equality not counting. compound: `COC(=O)N(C(=O)OC)c1c(OC)c(Cl)cc(F)c1-n1c(=O)cc(C(F)(F)F)n(C)c1=O` 0

====

tested on: barnyardgrass (Echinochloa crus-galli, ECHCG); assay: Pre-emerge test, greenhouse herbicide activity screening; type: in vivo; details: 63 g ai/ha; pre-emerge; rated 14 days after application; 0 = no damage, 100 = complete death
# maps each entry to its Pre-emerge Herbicidal Activity ECHCG (phytotoxicity rating, scale 0-100)
Note: the reply should be a number with no unit written.

So what's the measured Pre-emerge Herbicidal Activity ECHCG (phytotoxicity rating, scale 0-100) for this one? `CC(C)Oc1c(Cl)cc(F)c(-n2c(=O)cc(C(F)(F)F)n(C)c2=O)c1N` 40

Record request: Pre-emerge Herbicidal Activity ECHCG (phytotoxicity rating, scale 0-100) value, item `CCc1ccc(C(=O)Nc2c(OCC#N)c(Cl)cc(F)c2-n2c(=O)cc(C(F)(F)F)n(C)c2=O)cc1` 0

GET /values?readout=Pre-emerge Herbicidal Activity ECHCG (phytotoxicity rating, scale 0-100)&item= `C=CC(=O)N(C(=O)C=C)c1c(OC)c(Cl)cc(F)c1-n1c(=O)cc(C(F)(F)F)n(C)c1=O` 0

Returns the measured Pre-emerge Herbicidal Activity ECHCG (phytotoxicity rating, scale 0-100) for the input compound. Input: `COc1c(Cl)cc(F)c(-n2c(=O)cc(C(F)(F)F)n(C)c2=O)c1NC(=O)C1CCCCC1` 0

====

Listed molecules paired with reported phytotoxicity rating ABUTH
system: velvetleaf (Abutilon theophrasti, ABUTH); test: Post-emerge test, greenhouse herbicide activity screening; format: in vivo; conditions: post-emerge, 63 g ai/ha, 14 days after application, rating scale 0-100
Lab note: record the figure alone, no unit after it.

>>> recorded_value("Cn1c(C(F)(F)F)cc(=O)n(-c2c(F)cc(Cl)c(O)c2NC(=O)c2ncccn2)c1=O [2-102]")
0
>>> recorded_value("COc1c(Cl)cc(F)c(-n2c(=O)cc(C(F)(F)F)n(C)c2=O)c1N(C(=O)C=Cc1ccccc1Cl)C(=O)C=Cc1ccccc1Cl [2-83]")
50
>>> recorded_value("COc1c(Cl)cc(F)c(-n2c(=O)cc(C(F)(F)F)n(C)c2=O)c1NC(=O)c1ccccc1F [2-39]")
100

# phytotoxicity rating ABUTH lookup, item Cn1c(C(F)(F)F)cc(=O)n(-c2ccc(Cl)cc2NC(=O)Oc2ccccc2)c1=O [4-50] 60

====

Entries and their Post-emerge Herbicidal Activity RICE
test system: upland rice (Oryza sp., var. Tebonnet, RICE); experiment: Post-emerge test, crop safety; type: in vivo; conditions: post-emerge, 63 g ai/ha, crop damage rating 0-100 at 14 days after application
Give the value as a plain number.

Known Post-emerge Herbicidal Activity RICE results, listed for orientation:
>>> recorded_value("O=C(Nc1cc(Cl)ccc1-n1c(=O)n2n(c1=O)CCCC2)c1ccc2ccccc2c1 [9-19]")
15
>>> recorded_value("COc1c(Cl)cc(F)c(N2C(=O)C3=C(CCCC3)C2=O)c1NC(=O)C=Cc1ccccc1 [8-31]")
45

What value of Post-emerge Herbicidal Activity RICE has been reported for the following compound? C#CCOc1c(Cl)cc(F)c(N2C(=O)C3=C(CCCC3)C2=O)c1NC(=O)c1ccc(F)cc1F [8-13] 30

Please look up its Post-emerge Herbicidal Activity RICE: C#CCOc1c(Cl)cc(F)c(-n2nnn(CCCF)c2=O)c1N [Compound 5-17] 10

Item Cc1c(Cl)cc(F)c(-n2c(=O)cc(C(F)(F)F)n(C)c2=O)c1NC(=O)SCc1ccccc1 [4-66] has what recorded Post-emerge Herbicidal Activity RICE? 30

What Post-emerge Herbicidal Activity RICE value was documented for this compound, O=C(Nc1cc(Cl)ccc1N1C(=O)C2CCCCN2C1=O)c1ccc2ccccc2c1 (centres unmarked) [12-8] ? 20

Requested read-out: Post-emerge Herbicidal Activity RICE. Entry: COc1c(Cl)cc(F)c(-n2c(=O)n3n(c2=O)CCCC3)c1NC(=O)c1ccc2ccccc2c1 [9-15] 40

Post-emerge Herbicidal Activity RICE for Cc1ccc(COC(=O)Nc2c(C)c(Cl)cc(F)c2-n2c(=O)cc(C(F)(F)F)n(C)c2=O)cc1 [4-60] ? 50

====

tested on: upland rice (Oryza sp., var. Tebonnet, RICE); test: Post-emerge test, crop safety; assay type: in vivo; details: post-emerge, 250 g ai/ha, 14 days after application, rating scale 0-100
Documented RICE phytotoxicity rating (crop damage) across a set of molecules
Could you respond with only the numeric value?

Consider the reported RICE phytotoxicity rating (crop damage) for these molecules:
>>> recorded_value("COc1cc2ccccc2cc1C(=O)Nc1c(OC)c(Cl)cc(F)c1-n1c(=O)cc(C(F)(F)F)n(C)c1=O [2-152]")
65
>>> recorded_value("CCOC(=O)CSCC(=O)Nc1c(OC)c(Cl)cc(F)c1-n1c(=O)cc(C(F)(F)F)n(C)c1=O [2-170]")
10
>>> recorded_value("Cn1c(C(F)(F)F)cc(=O)n(-c2ccc(C#N)cc2NC(=O)c2ccc3ccccc3c2)c1=O [2-140]")
80

Now for another entry.
For Cn1c(C(F)(F)F)cc(=O)n(-c2ccc(Cl)cc2NC(=O)C=Cc2ccccc2)c1=O [2-137] , what is its reported RICE phytotoxicity rating (crop damage)? 70

====

test system: upland rice (Oryza sp., var. Tebonnet, RICE); assay: Post-emerge test, crop safety; assay type: in vivo; conditions: post-emerge, 250 g ai/ha, 14 days after application, rating scale 0-100
So basically: phytotoxicity rating RICE at 80 or higher? That is 1. Lower than 80? That is 0.

These recorded examples may help you get a feel for the data.
>>> assigned_label("COc1c(Cl)cc(F)c(-n2c(=O)cc(C(F)(F)F)n(C)c2=O)c1NC(=O)CCc1ccccc1")
1
>>> assigned_label("COc1c(Cl)cc(F)c(-n2c(=O)cc(C(F)(F)F)n(C)c2=O)c1N(C(=O)c1ccc(F)c(F)c1)C(=O)c1ccc(F)c(F)c1")
0
>>> assigned_label("COc1c(Cl)cc(F)c(-n2c(=O)cc(C(F)(F)F)n(C)c2=O)c1NC(=O)c1ccc(Cl)cc1Cl")
1
>>> assigned_label("COc1c(Cl)cc(F)c(-n2c(=O)cc(C(F)(F)F)n(C)c2=O)c1NC(=O)c1ccc(C(F)(F)F)cc1")
0
>>> assigned_label("COc1c(Cl)cc(F)c(-n2c(=O)cc(C(F)(F)F)n(C)c2=O)c1NC(=O)c1cc([N+](=O)[O-])cc([N+](=O)[O-])c1")
0
>>> assigned_label("COc1c(Cl)cc(F)c(-n2c(=O)cc(C(F)(F)F)n(C)c2=O)c1NC(=O)c1ccc(F)cc1")
1
>>> assigned_label("Cn1c(C(F)(F)F)cc(=O)n(-c2c(F)cc(Cl)c(OCC#N)c2N(C(=O)c2ccc(F)cc2F)C(=O)c2ccc(F)cc2F)c1=O")
0
>>> assigned_label("Cn1c(C(F)(F)F)cc(=O)n(-c2c(F)cc(Cl)c(O)c2NC(=O)c2ncccn2)c1=O")
0

Please check the record `COc1c(Cl)cc(F)c(-n2c(=O)cc(C(F)(F)F)n(C)c2=O)c1NC(=O)c1cccc(F)c1F` and state if its phytotoxicity rating RICE is at or above 80. 0

Entry `COc1c(Cl)cc(F)c(-n2c(=O)cc(C(F)(F)F)n(C)c2=O)c1NC(=O)c1cccc(Cl)c1` : is its phytotoxicity rating RICE no less than 80? 1

Is it the case that `COc1c(Cl)cc(F)c(-n2c(=O)cc(C(F)(F)F)n(C)c2=O)c1N(C(=O)c1ccc(C(F)(F)F)cc1)C(=O)c1ccc(C(F)(F)F)cc1` has phytotoxicity rating RICE reaching or exceeding 80? 1

Test whether the compound `COc1c(Cl)cc(F)c(-n2c(=O)cc(C(F)(F)F)n(C)c2=O)c1NC(=O)c1cccnc1` records phytotoxicity rating RICE of 80 or higher. 1

Could you verify whether the entry `COc1c(Cl)cc(F)c(-n2c(=O)cc(C(F)(F)F)n(C)c2=O)c1NC(=O)c1cnc2ccccc2n1` shows phytotoxicity rating RICE of no less than 80? 0

Form field: phytotoxicity rating RICE at least 80? Entry: `COc1c(Cl)cc(F)c(-n2c(=O)cc(C(F)(F)F)n(C)c2=O)c1NC(=O)c1ccc(I)cc1` 1

In plain terms: is recorded phytotoxicity rating RICE at least 80 for `COc1c(Cl)cc(F)c(-n2c(=O)cc(C(F)(F)F)n(C)c2=O)c1NC(=O)C(C)=Cc1ccccc1` ? 1

In plain terms: is recorded phytotoxicity rating RICE at least 80 for `COc1c(Cl)cc(F)c(-n2c(=O)cc(C(F)(F)F)n(C)c2=O)c1N(C(=O)c1ccc(Cl)nc1)C(=O)c1ccc(Cl)nc1` ? 0

Say whether `COc1c(Cl)cc(F)c(-n2c(=O)cc(C(F)(F)F)n(C)c2=O)c1NC(=O)c1cccc2ccccc12` shows phytotoxicity rating RICE of 80 or more. 0

For this compound, is measured phytotoxicity rating RICE 80 or higher? `COc1c(Cl)cc(F)c(-n2c(=O)cc(C(F)(F)F)n(C)c2=O)c1NC(=O)c1ccc(F)cc1F` 1

State whether the measured phytotoxicity rating RICE reaches 80, counting equality as reaching it, for `COc1c(Cl)cc(F)c(-n2c(=O)cc(C(F)(F)F)n(C)c2=O)c1NC(=O)COCc1ccccc1` 0

Determine whether measured phytotoxicity rating RICE meets or exceeds 80 for `COc1c(Cl)cc(F)c(-n2c(=O)cc(C(F)(F)F)n(C)c2=O)c1NC(=O)COc1ccccc1` 1

Item `COc1c(Cl)cc(F)c(-n2c(=O)cc(C(F)(F)F)n(C)c2=O)c1NC(=O)c1c(F)cccc1F` with phytotoxicity rating RICE of 80 or above? 0

Hi, just wondering whether `COc1c(Cl)cc(F)c(-n2c(=O)cc(C(F)(F)F)n(C)c2=O)c1NC(=O)c1ccc(-c2ccccc2)cc1` shows phytotoxicity rating RICE of 80 or higher. 0

Please tell me: is the compound `COc1c(Cl)cc(F)c(-n2c(=O)cc(C(F)(F)F)n(N)c2=O)c1NC(=O)c1ccc2ccccc2c1` at or over 80 in terms of phytotoxicity rating RICE? 0

Check this compound for phytotoxicity rating RICE at or above 80: `COc1c(Cl)cc(F)c(-n2c(=O)cc(C(F)(F)F)n(C)c2=O)c1NC(=O)c1ccc(Br)cc1` 1

Please check the record `COc1ccc(C(=O)Nc2c(OC)c(Cl)cc(F)c2-n2c(=O)cc(C(F)(F)F)n(C)c2=O)cc1` and state if its phytotoxicity rating RICE is at or above 80. 1

Quick check, phytotoxicity rating RICE >= 80? `COc1c(Cl)cc(F)c(-n2c(=O)cc(C(F)(F)F)n(C)c2=O)c1NC(=O)C=Cc1ccccc1Cl` 0
